Entries annotated with measured Total Amount TSST-1 Produced
- System: Staphylococcus aureus strain FRI-1169
- experimental.protocol: microbe, parasite or virus in culture
- Format: cell-based
- details: Example 8: test tampon comprising 1% by weight of the ester; 24 hours at 37°C; ELISA

Consider the worked cases shown below.
compound: CCCCCCCCCCCCCC(=O)OCC(O)CO (centres unmarked) [Tampon No. 3, Glyceryl monomyristate]
result: 0.58 »g

compound: CCCCCCCCCCCCCCCCCC(=O)OCC(O)CO (centres unmarked) [Tampon No. 5, Glyceryl monostearate]
result: 6.43 »g

compound: CCCCCCCC/C=C\CCCCCCCC(=O)OCC(O)CO (centres unmarked) [Tampon No. 6, Glyceryl monooleate]
result: 1.01 »g

compound: CCCCCCCCCCCCCCCC(=O)OCC(O)CO (centres unmarked) [Tampon No. 4, Glyceryl monopalmitate]
result: 1.75 »g

Lab note: next compound to report on.
Lab note: CCCCCCCCCCCC(=O)OCC(O)CO (centres unmarked) [Tampon No. 2, Glyceryl monolaurate] gave Total Amount TSST-1 Produced of 0.14 »g

Value source: patent EP0395099B1
